System name: SARS-CoV-2 3CLpro (Severe acute respiratory syndrome coronavirus 2)
Protocol details: biochemical
Measure: pIC50
In textbook form, pIC50 equals minus log to base ten of the concentration in mol/L.

Problem: Supply measured pIC50 of CCC(C)(C)[C@H](NC(=O)C(F)F)C(=O)N1C[C@H]2[C@@H]([C@H]1C(=O)NN(C[C@@H]1CCNC1=O)C(=O)[C@@H](F)Cl)C2(C)C in your reply.
Result: 7.89

Problem: Supply measured pIC50 of CC[C@H](C)[C@H](NC(=O)C1(F)CC1)C(=O)N1C[C@@H]2CCC[C@@H]2[C@H]1C(=O)NN(C[C@@H]1CCNC1=O)C(=O)[C@H](F)Cl in your reply.
Result: 8.15

Problem: Supply measured pIC50 of CC[C@@H](C)[C@H](NC(=O)C(F)(F)F)C(=O)N1C[C@H]2[C@@H]([C@H]1C(=O)NN(C[C@@H]1CCNC1=O)C(=O)[C@H](F)Cl)C2(C)C in your reply.
Result: 8.00

Problem: Supply measured pIC50 of CCC(C)(C)[C@H](NC(=O)[C@@H]1CC1(F)F)C(=O)N1C[C@@H]2CCC[C@@H]2[C@H]1C(=O)NN(C[C@@H]1CCNC1=O)C(=O)[C@H](F)Cl in your reply.
Result: 7.96

Problem: Supply measured pIC50 of CC(C)(C)[C@H](NC(=O)C(F)(F)F)C(=O)N1C[C@H]2[C@@H]([C@H]1C(=O)NN(C[C@@H]1CCCNC1=O)C(=O)[C@H](F)Cl)C2(C)C (single isomer, unassigned) [Example 163b] in your reply.
Result: 7.77

Problem: Supply measured pIC50 of CC[C@H](C)[C@H](NC(=O)C1(F)CC1)C(=O)N1C[C@H]2[C@@H]([C@H]1C(=O)NN(C[C@@H]1CCNC1=O)C(=O)[C@H](F)Cl)C2(C)C in your reply.
Result: 8.15

Problem: Supply measured pIC50 of CSCC[C@H](NC(=O)C(F)(F)F)C(=O)N1C[C@H]2[C@@H]([C@H]1C(=O)NN(C[C@@H]1CCNC1=O)C(=O)[C@H](F)Cl)C2(C)C in your reply.
Result: 7.96

Problem: Supply measured pIC50 of CC(C)(C)[C@H](NC(=O)C(F)(F)C(F)(F)F)C(=O)N1C[C@@H]2CCC[C@@H]2[C@H]1C(=O)NN(C[C@@H]1CCNC1=O)C(=O)[C@H](F)Cl in your reply.
Result: 8.15

###

System name: SARS-CoV-2 3CLpro (Severe acute respiratory syndrome coronavirus 2, UniProt P0DTD1)
Protocol details: biochemical
Measure: pIC50
In textbook form, pIC50 equals minus log to base ten of the concentration in mol/L.

Problem: Supply measured pIC50 of CC[C@H](C)[C@H](NC(=O)[C@@H](F)Cl)C(=O)N1C[C@H]2[C@@H]([C@H]1C(=O)NN(C[C@@H]1CCCNC1=O)C(=O)[C@@H](F)Cl)C2(C)C [Example 189] in your reply.
Result: 8.10

Problem: Supply measured pIC50 of CC(C)(C)[C@H](NC(=O)C1CC1)C(=O)N1C[C@@H]2CCC[C@@H]2[C@H]1C(=O)NN(C[C@@H]1CCNC1=O)C(=O)[C@H](F)Cl [Example 31] in your reply.
Result: 8.10

Problem: Supply measured pIC50 of CCC(C)(C)[C@H](NC(=O)C1CC1)C(=O)N1C[C@H]2[C@@H]([C@H]1C(=O)NN(C[C@@H]1CCCNC1=O)C(=O)[C@H](F)Cl)C2(C)C [Example 169a] in your reply.
Result: 8.05

Problem: Supply measured pIC50 of CC(C)(C)C(=O)N[C@H](C(=O)N1C[C@H]2[C@@H]([C@H]1C(=O)NN(C[C@@H]1CCNC1=O)C(=O)[C@H](F)Cl)C2(C)C)C(C)(C)C [Example 11] in your reply.
Result: 6.66

Problem: Supply measured pIC50 of CC[C@H](C)[C@H](NC(=O)C(F)(F)C(F)(F)F)C(=O)N1C[C@H]2[C@@H]([C@H]1C(=O)NN(C[C@@H]1CCNC1=O)C(=O)[C@H](F)Cl)C2(C)C [Example 62] in your reply.
Result: 8.10

Problem: Supply measured pIC50 of CC[C@@H](C)[C@H](NC(=O)C1CC1(F)F)C(=O)N1C[C@H]2[C@@H]([C@H]1C(=O)NN(C[C@@H]1CCNC1=O)C(=O)[C@@H](F)Cl)C2(C)C (mixture of isomers) [Example 124] in your reply.
Result: 7.59

Problem: Supply measured pIC50 of CC[C@H](C)[C@H](NC(=O)C(F)F)C(=O)N1C[C@H]2[C@@H]([C@H]1C(=O)NN(C[C@@H]1CCNC1=O)C(=O)[C@@H](F)Cl)C2(C)C [Example 109] in your reply.
Result: 7.85

Problem: Supply measured pIC50 of CC(C)(C)[C@H](NC(=O)[C@@H]1CC1(F)F)C(=O)N1C[C@@H]2CCC[C@@H]2[C@H]1C(=O)NN(C[C@@H]1CCCNC1=O)C(=O)[C@H](F)Cl [Example 196] in your reply.
Result: 7.96

Problem: Supply measured pIC50 of C[C@H]1C[C@@H](C(=O)NN(C[C@@H]2CCNC2=O)C(=O)[C@H](F)Cl)N(C(=O)[C@@H](NC(=O)C(F)(F)F)C(C)(C)C)C1 [Example 27] in your reply.
Result: 7.54

Problem: Supply measured pIC50 of CCC(C)(C)[C@H](NC(=O)C(F)(F)F)C(=O)N1C[C@H]2[C@@H]([C@H]1C(=O)NN(C[C@@H]1CCNC1=O)C(=O)[C@H](F)Cl)C2(C)C [Example 86] in your reply.
Result: 8.15

###

Measure: pIC50
In textbook form, pIC50 equals minus log to base ten of the concentration in mol/L.

Problem: Enter recorded pIC50 with HCoV-229E 3CLpro (Human coronavirus 229E, UniProt P0C6X1) for CC1(C)[C@@H]2[C@@H](C(=O)NN(C[C@@H]3CCNC3=O)C(=O)[C@H](F)Cl)N(C(=O)[C@H](Cc3ccccc3)NC(=O)C(F)(F)F)C[C@@H]21 [Example 20] here.
Sequence (P0C6X1 2966-3267): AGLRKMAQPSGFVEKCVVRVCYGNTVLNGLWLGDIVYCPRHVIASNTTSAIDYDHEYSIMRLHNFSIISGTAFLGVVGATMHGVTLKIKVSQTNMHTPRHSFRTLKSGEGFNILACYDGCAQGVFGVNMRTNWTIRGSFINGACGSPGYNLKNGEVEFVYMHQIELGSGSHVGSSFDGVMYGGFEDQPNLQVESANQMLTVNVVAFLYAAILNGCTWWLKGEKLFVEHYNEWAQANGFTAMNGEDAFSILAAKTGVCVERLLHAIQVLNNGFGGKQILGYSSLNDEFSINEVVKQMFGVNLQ
Result: 7.33

Problem: Enter recorded pIC50 with HCoV-229E 3CLpro (Human coronavirus 229E, UniProt P0C6X1) for CC(C)(C)[C@H](NC(=O)C(F)(F)F)C(=O)N1C[C@H]2[C@@H]([C@H]1C(=O)NN(C[C@@H]1CCNC1=O)C(=O)[C@@H](F)Cl)C2(C)C [Example 19] here.
Result: 7.57

Problem: Enter recorded pIC50 with HCoV-229E 3CLpro (Human coronavirus 229E, UniProt P0C6X1) for CC(F)C(=O)N[C@H](C(=O)N1C[C@@H]2CCC[C@@H]2[C@H]1C(=O)NN(C[C@@H]1CCNC1=O)C(=O)[C@H](F)Cl)C(C)(C)C (mixture of isomers) [Example 36] here.
Result: 7.47

Problem: Enter recorded pIC50 with HCoV-229E 3CLpro (Human coronavirus 229E, UniProt P0C6X1) for CC1(C)[C@@H]2[C@@H](C(=O)NN(C[C@@H]3CCNC3=O)C(=O)[C@H](F)Cl)N(C(=O)[C@@H](NC(=O)C(F)(F)F)c3ccccc3)C[C@@H]21 [Example 21] here.
Result: 7.47

###

For each record, write down the corresponding pIC50.
System name: SARS-CoV-2 3CLpro (Severe acute respiratory syndrome coronavirus 2)
Protocol details: biochemical
In textbook form, pIC50 equals minus log to base ten of the concentration in mol/L.

Problem: Supply measured pIC50 of CC1(C)[C@@H]2[C@@H](C(=O)NN(C[C@@H]3CCNC3=O)C(=O)[C@H](F)Cl)N(C(=O)[C@@H](NC(=O)C(F)(F)F)c3ccccc3)C[C@@H]21 [Example 21] in your reply.
Result: 7.60

Problem: Supply measured pIC50 of CC(F)C(=O)N[C@H](C(=O)N1C[C@@H]2CCC[C@@H]2[C@H]1C(=O)NN(C[C@@H]1CCNC1=O)C(=O)[C@H](F)Cl)C(C)(C)C (mixture of isomers) [Example 36] in your reply.
Result: 8.15

Problem: Supply measured pIC50 of CCC(CC)[C@H](NC(=O)C1CC(F)(F)C1)C(=O)N1C[C@H]2[C@@H]([C@H]1C(=O)NN(C[C@@H]1CCNC1=O)C(=O)[C@H](F)Cl)C2(C)C [Example 130] in your reply.
Result: 7.92

Problem: Supply measured pIC50 of CC[C@@H](C)[C@H](NC(=O)C(F)F)C(=O)N1C[C@H]2[C@@H]([C@H]1C(=O)NN(C[C@@H]1CCNC1=O)C(=O)[C@@H](F)Cl)C2(C)C [Example 120] in your reply.
Result: 7.72

Problem: Supply measured pIC50 of CCC(CC)[C@H](NC(=O)C1(F)CC1)C(=O)N1C[C@H]2[C@@H]([C@H]1C(=O)NN(C[C@@H]1CCNC1=O)C(=O)[C@H](F)Cl)C2(C)C [Example 132] in your reply.
Result: 8.00
